study system: UniProt O95749
Sequence (O95749 whole entry): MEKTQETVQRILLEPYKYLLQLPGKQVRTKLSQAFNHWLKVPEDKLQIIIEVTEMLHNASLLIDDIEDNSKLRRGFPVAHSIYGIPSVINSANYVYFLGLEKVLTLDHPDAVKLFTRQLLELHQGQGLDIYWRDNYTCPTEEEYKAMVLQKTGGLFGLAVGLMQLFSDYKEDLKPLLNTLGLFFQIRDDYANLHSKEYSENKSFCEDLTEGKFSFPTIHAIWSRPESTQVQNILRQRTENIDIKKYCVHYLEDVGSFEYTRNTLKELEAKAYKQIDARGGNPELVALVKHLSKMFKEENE
measurement notes: Inhibition of N-terminal His6 tagged human GGPPS expressed in Escherichia coli BL21(DE3) cells in presence of FPP and [14C]IPP by scintillation counting analysis
pIC50: −log10 of the molar value.
quantity name: pIC50

[
  {
    "smiles data": "COc1ccc(NC(=O)c2cccc(-c3nc(NC(P(=O)(O)O)P(=O)(O)O)c4cn[nH]c4n3)c2)cc1F",
    "endpoint value": 7.60
  },
  {
    "smiles data": "CCn1ncc2c(NC(P(=O)(O)O)P(=O)(O)O)nc(-c3cccc(C(=O)Nc4ccc(F)cc4)c3)nc21",
    "endpoint value": 7.54
  },
  {
    "smiles data": "CC(C)n1ncc2c(NC(P(=O)(O)O)P(=O)(O)O)nc(-c3cccc(C(=O)Nc4ccc(F)cc4)c3)nc21",
    "endpoint value": 7.52
  },
  {
    "smiles data": "COc1ccc(NC(=O)c2cccc(-c3nc(NC(P(=O)(O)O)P(=O)(O)O)c4cnn(C)c4n3)c2)cc1F",
    "endpoint value": 7.32
  },
  {
    "smiles data": "O=C(Nc1ccc(C(F)(F)F)cc1)c1cccc(-c2nc(NC(P(=O)(O)O)P(=O)(O)O)c3ccsc3n2)c1",
    "endpoint value": 7.92
  },
  {
    "smiles data": "CCn1ncc2c(NC(P(=O)(O)O)P(=O)(O)O)nc(-c3cccc(C(=O)Nc4ccc(C(F)(F)F)cc4)c3)nc21",
    "endpoint value": 7.52
  },
  {
    "smiles data": "Cn1ncc2c(NC(P(=O)(O)O)P(=O)(O)O)nc(-c3cccc(C(=O)Nc4ccc(C(F)(F)F)cc4)c3)nc21",
    "endpoint value": 7.92
  },
  {
    "smiles data": "COc1ccc(NC(=O)c2cccc(-c3nc(NC(P(=O)(O)O)P(=O)(O)O)c4cnn(C(C)C)c4n3)c2)cc1F",
    "endpoint value": 7.39
  }
]

P. O=C(Nc1ccc(F)cc1)c1cccc(-c2nc(NC(P(=O)(O)O)P(=O)(O)O)c3cn[nH]c3n2)c1
Q. CC(C)n1ncc2c(NC(P(=O)(O)O)P(=O)(O)O)nc(-c3cccc(C(=O)Nc4ccc(C(F)(F)F)cc4)c3)nc21
R. O=C(Nc1ccc(C(F)(F)F)cc1)c1cccc(-c2nc(NC(P(=O)(O)O)P(=O)(O)O)c3cn[nH]c3n2)c1
stdin: Rank entries according to their pIC50, from the largest number down. Return the labels ranked in the requested order, please.
stdout: R, Q, P

A. Cn1ncc2c(NC(P(=O)(O)O)P(=O)(O)O)nc(-c3cccc(C(=O)Nc4ccc(F)cc4)c3)nc21
B. COc1ccc(NC(=O)c2cccc(-c3nc(NC(P(=O)(O)O)P(=O)(O)O)c4cn(C)nc4n3)c2)cc1F
stdin: Between item A and item B , which reported pIC50 is smaller? Mark your selection by writing its label.
stdout: B

P. COc1ccc(NC(=O)c2cccc(-c3nc(NC(P(=O)(O)O)P(=O)(O)O)c4ncn(C)c4n3)c2)cc1F
Q. Cn1cnc2c(NC(P(=O)(O)O)P(=O)(O)O)nc(-c3cccc(C(=O)Nc4ccc(C(F)(F)F)cc4)c3)nc21
stdin: Given the two records P and Q , choose the one whose pIC50 value is lower. # answer = label of selected item
stdout: P
(P: 7.24, Q: 7.89)

###

measurement notes: Cytotoxicity against Normal human bronchial epithelial cells assessed as inhibition of cell growth at 10 uM incubated for 72 hrs by MTS assay relative to control
Assay type: toxicity, cell-based
quantity name: inhibition at 72 h, 10 µM (%)
Give the quantity in %, number only.

stdin: State the recorded inhibition at 72 h, 10 µM for this entry: Cn1ncc2c(NC(P(=O)(O)O)P(=O)(O)O)nc(-c3cccc(C(=O)Nc4ccc(C(F)(F)F)cc4)c3)nc21
stdout: 0

###

study system: Cytochrome P450 2C9 (Homo sapiens, UniProt P11712)
Sequence (P11712 whole entry): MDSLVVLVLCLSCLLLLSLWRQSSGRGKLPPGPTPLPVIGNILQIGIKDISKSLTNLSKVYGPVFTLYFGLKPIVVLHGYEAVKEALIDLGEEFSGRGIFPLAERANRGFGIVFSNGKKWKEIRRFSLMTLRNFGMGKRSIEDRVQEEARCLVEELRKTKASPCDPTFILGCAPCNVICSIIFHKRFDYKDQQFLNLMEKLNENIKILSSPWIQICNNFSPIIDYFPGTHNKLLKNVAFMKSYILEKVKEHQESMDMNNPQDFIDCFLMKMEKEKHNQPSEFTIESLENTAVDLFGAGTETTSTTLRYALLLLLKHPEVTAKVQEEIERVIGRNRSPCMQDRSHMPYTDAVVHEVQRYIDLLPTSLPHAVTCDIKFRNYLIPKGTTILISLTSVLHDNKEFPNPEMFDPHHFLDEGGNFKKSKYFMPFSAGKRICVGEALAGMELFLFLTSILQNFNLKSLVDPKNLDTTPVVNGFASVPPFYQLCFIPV
pIC50: −log10 of the molar value.
quantity name: pIC50

stdin: # query: pIC50 | item Cn1ncc2c(NC(P(=O)(O)O)P(=O)(O)O)nc(-c3cccc(C(=O)Nc4ccc(C(F)(F)F)cc4)c3)nc21 | system: Cytochrome P450 2C9 (Homo sapiens, UniProt P11712)
stdout: < 4.40

###

measurement notes: Cytotoxicity against Normal human bronchial epithelial cells assessed as inhibition of cell growth incubated for 72 hrs by MTS assay
Type: toxicity, cell-based
quantity name: EC50 at 72 h (nM)
# output: bare number, implied unit nM

stdin: Returns the measured EC50 at 72 h for the input molecule. Input: COc1cccc2c1C(=O)c1c(O)c3c(c(O)c1C2=O)C[C@@](O)(C(=O)CO)C[C@@H]3O[C@H]1C[C@H](N)[C@H](O)[C@H](C)O1
stdout: 450

###

Test system: HCT-116
measurement notes: cells
condition: Homo sapiens, HCT-116, 72 h
pEC50: −log10 of the molar value.
quantity name: pEC50

P. COc1cccc2c1C(=O)c1c(O)c3c(c(O)c1C2=O)C[C@@](O)(C(=O)CO)C[C@@H]3O[C@H]1C[C@H](N)[C@H](O)[C@H](C)O1
Q. Cn1ncc2c(NC(P(=O)(O)O)P(=O)(O)O)nc(-c3cccc(C(=O)Nc4ccc(C(F)(F)F)cc4)c3)nc21
R. Nc1ccn([C@@H]2O[C@H](CO)[C@@H](O)C2(F)F)c(=O)n1
stdin: Order these compounds (above) by their pEC50, from the smallest value upward. # answer = labels listed in requested order
stdout: Q, P, R
(Q: 6.24, P: 7.39, R: 8.40)

###

measurement notes: AUC(0 to infinity) in Sprague-Dawley rat at 3 mg/kg, iv measured for 24 hrs by LC-MS/MS analysis
Format: ADME, organism-based
Parameters: dose 3 mg/kg, time 24 hrs, route iv
condition: in vivo
quantity name: AUC(0-inf) (µg·h/mL)
API: value field is a number in µg·h/mL; no unit string.

stdin: Query (compound): Cn1ncc2c(NC(P(=O)(O)O)P(=O)(O)O)nc(-c3cccc(C(=O)Nc4ccc(C(F)(F)F)cc4)c3)nc21 ; field requested: AUC(0-inf)
stdout: 156

###

study system: Farnesyl pyrophosphate synthase (Homo sapiens) (UniProt P14324)
measurement notes: Inhibition of N-terminally His6-tagged recombinant human FPPS expressed in Escherichia coli BL21(DE3) cells using […] and [14C]IPP as substrate at 1 uM preincubated for 10 mins followed by substrate addition by scintillation counting analysis relative to control
quantity name: inhibition

stdin: State the recorded inhibition for this entry: COc1ccc(NC(=O)c2cccc(-c3nc(NC(P(=O)(O)O)P(=O)(O)O)c4ncn(C)c4n3)c2)cc1F
stdout: < 10%

###

study system: Farnesyl pyrophosphate synthase (Homo sapiens)
Sequence (whole entry): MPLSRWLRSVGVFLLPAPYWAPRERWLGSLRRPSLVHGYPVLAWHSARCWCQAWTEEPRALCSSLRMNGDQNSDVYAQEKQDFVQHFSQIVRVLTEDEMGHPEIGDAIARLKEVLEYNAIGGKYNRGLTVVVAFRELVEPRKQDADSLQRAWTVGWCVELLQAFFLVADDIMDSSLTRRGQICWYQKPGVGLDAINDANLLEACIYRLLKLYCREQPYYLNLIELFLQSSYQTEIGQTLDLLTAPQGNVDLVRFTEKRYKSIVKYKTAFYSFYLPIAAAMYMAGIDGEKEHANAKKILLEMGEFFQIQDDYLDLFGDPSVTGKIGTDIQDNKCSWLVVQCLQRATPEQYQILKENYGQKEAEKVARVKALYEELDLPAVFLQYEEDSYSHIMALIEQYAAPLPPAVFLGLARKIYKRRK
measurement notes: Inhibition of N-terminally His6-tagged recombinant human FPPS expressed in Escherichia coli BL21(DE3) cells using […] and [14C]IPP as substrate at 1 uM preincubated for 10 mins followed by substrate addition by scintillation counting analysis relative to control
quantity name: inhibition (%)

A. COc1ccc(NC(=O)c2cccc(-c3nc(NC(P(=O)(O)O)P(=O)(O)O)c4cn(C)nc4n3)c2)cc1F
B. COc1ccc(NC(=O)c2cccc(-c3nc(NC(P(=O)(O)O)P(=O)(O)O)c4cn[nH]c4n3)c2)cc1F
stdin: // max by inhibition over [ A , B ] Which one? Tell me its label.
stdout: A
(A: 15%, B: 10%)

###

The molecules listed here are annotated with their inhibition.
study system: Farnesyl pyrophosphate synthase (Homo sapiens) (UniProt P14324)
measurement notes: Inhibition of N-terminally His6-tagged recombinant human FPPS expressed in Escherichia coli BL21(DE3) cells using […] and [14C]IPP as substrate at 1 uM preincubated for 10 mins followed by substrate addition by scintillation counting analysis relative to control

Previously resolved entries follow.
[
  {
    "smiles data": "CCn1ncc2c(NC(P(=O)(O)O)P(=O)(O)O)nc(-c3cccc(C(=O)Nc4ccc(OC)c(F)c4)c3)nc21",
    "study system": "Farnesyl pyrophosphate synthase (Homo sapiens) (UniProt P14324)",
    "inhibition": "< 10%"
  },
  {
    "smiles data": "COc1ccc(NC(=O)c2cccc(-c3nc(NC(P(=O)(O)O)P(=O)(O)O)c4cnn(C(C)C)c4n3)c2)cc1F",
    "study system": "Farnesyl pyrophosphate synthase (Homo sapiens) (UniProt P14324)",
    "inhibition": "< 10%"
  }
]

Now look at this one.
stdin: Entry under review: COc1ccc(NC(=O)c2cccc(-c3nc(NC(P(=O)(O)O)P(=O)(O)O)c4cnn(C)c4n3)c2)cc1F . Reported inhibition?
stdout: < 10%

Where do the numbers come from? From ChEMBL document CHEMBL5375954.
